Source of measurements: patent US10703748B2

Known EC50 of a selection of compounds
- target_or_test_system: GSK3β kinase (Homo sapiens)
- measurement_description: GSK3β kinase activity (Ser/Thr 09 peptide Z-lyte FRET assay)
- Assay type: biochemical
- experimental_parameters: recombinant kinase, 46 μM ATP, one hour at room temperature; read-out: EC50

Value (EC50, GSK3β kinase (Homo sapiens)) for record `CC(C)n1cc(C(=O)Nc2cc3cc(-c4cncc(NC5CCN(C)CC5)n4)cnc3cn2)cn1` = > 10 µM

Item `CC(C)CN1CCC(C(=O)Nc2cc3cc(-c4nnnn4C)cnc3cn2)CC1` was tested on GSK3β kinase (Homo sapiens); the reported EC50 is > 10 µM

Consider the record given below.
Field EC50 (GSK3β kinase (Homo sapiens)), entry `CC(C)Oc1ccc(C(=O)Nc2ncc3ccc(-c4cnc5n4CCN(C)C5)cc3n2)cc1` : > 10 µM

---

- System: α-smooth muscle actin (aSMA) positive LL29 cells
- measurement_description: Inhibition of the fibrotic process: αSMA staining in TGF-β1 treated LL29 fibroblasts from IPF patients
- experimental_parameters: Homo sapiens, Fibroblast, read-out: percentage in parentheses after EC50 >10
Known inhibition at 10 µM of a selection of compounds

// known answers, use as guide
Consider CN1CCC(C(=O)Nc2cc3cc(-c4cnsc4)cnc3cn2)CC1 [Compound 3412] . Its measured inhibition at 10 µM is 46.2%

compound CN1CCC(n2cc(C(=O)Nc3cc4cc(-c5cnn(C)c5)ncc4cn3)cn2)CC1 [Compound 3856] , inhibition at 10 µM observed: 17.5%

More entries:
Value of measured inhibition at 10 µM for the entry Cn1cncc1-c1cc2cc(NC(=O)c3ccc(F)cc3)ncc2cn1 [Compound 4075] : 39.2%

Noted for Cc1nnc(-c2cc3cc(NC(=O)CN4C5CCC4CC5)ncc3cn2)s1 [Compound 4353] : its inhibition at 10 µM reads 26.4%

// field: inhibition at 10 µM; key: Cn1cncc1-c1cnc2cnc(NC(=O)C3CCC(F)(F)CC3)cc2c1 [Compound 3120] ; value = 27%

The recorded inhibition at 10 µM for entry O=C(Nc1cc2cc(-c3cncc(NC4CCNCC4)n3)cnc2cn1)C1CCOCC1 [Compound 3597] equals 7.7%

For record CN(C)[C@H]1CC[C@H](C(=O)Nc2cc3cc(-c4cncs4)ncc3cn2)CC1 [Compound 4239] the listed inhibition at 10 µM is 50%

inhibition at 10 µM reported for this compound CN1CCCN(c2cc(C(=O)Nc3cc4cc(-c5cn(C)nn5)ncc4cn3)ccn2)CC1 [Compound 4006] : 5.2%

Record Cn1cc(-c2cnc3cnc(NC(=O)c4ccnc(N5CCNCC5)c4)cc3c2)cn1 [Compound 2866] , field inhibition at 10 µM: 47.4%

// field: inhibition at 10 µM; key: Cc1ncc(-c2cnc3cnc(NC(=O)C4CCN(C5COC5)CC4)cc3c2)s1 [Compound 4622] ; value = 29.4%

Looking up CO[C@H]1CC[C@H](C(=O)Nc2cc3cc(-c4nnc(C)s4)cnc3cn2)CC1 [Compound 3425] , I see its inhibition at 10 µM listed as 19.3%

Per the record, Cn1cc(-c2cnc3cnc(NC(=O)c4ccnc(N5CCNCC5)c4)cc3c2)nn1 [Compound 3105] has inhibition at 10 µM of 21.8%

// Cc1ncc(-c2ccc3cnc(NC(=O)N4CCC(N5CCOCC5)CC4)cc3n2)o1 [Compound 566] : inhibition at 10 µM value = 35.2%

Lab note: measured inhibition at 10 µM of CN1CCC(N(C)c2cc(C(=O)Nc3cc4cc(-c5cn(C)nn5)cnc4cn3)ccn2)CC1 [Compound 3102] was 50%

Per the record, Cc1ncc(-c2ccc3cnc(NC(=O)Cn4ccnc4)nc3c2)o1 [Compound 1495] has inhibition at 10 µM of 48.5%

---

- target_or_test_system: GSK3β kinase (Homo sapiens, UniProt P49841)
- Sequence (P49841 whole entry): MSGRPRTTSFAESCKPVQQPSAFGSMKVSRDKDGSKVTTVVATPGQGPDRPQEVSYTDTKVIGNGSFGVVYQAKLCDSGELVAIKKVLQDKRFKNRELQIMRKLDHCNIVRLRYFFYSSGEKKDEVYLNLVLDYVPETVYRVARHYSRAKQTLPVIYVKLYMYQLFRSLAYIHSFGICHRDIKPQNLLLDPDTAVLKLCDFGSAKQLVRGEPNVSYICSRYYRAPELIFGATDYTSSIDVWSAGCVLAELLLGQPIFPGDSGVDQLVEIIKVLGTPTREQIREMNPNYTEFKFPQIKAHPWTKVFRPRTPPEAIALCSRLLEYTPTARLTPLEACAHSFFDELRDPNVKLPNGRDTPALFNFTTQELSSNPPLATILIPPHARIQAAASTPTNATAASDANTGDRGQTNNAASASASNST
- measurement_description: GSK3β kinase activity (Ser/Thr 09 peptide Z-lyte FRET assay)
- Format: biochemical
- experimental_parameters: recombinant kinase, 46 μM ATP, one hour at room temperature; read-out: EC50
pEC50: −log10 of the molar value.
Rule: criterion met for pEC50 not less than 6, criterion not met for anything less.

Past entries and their recorded results:
Ask: Threshold query (pEC50 >= 6) on CN1CCCN(CC(=O)Nc2cc3nc(-c4cnn(C)c4)ccc3cn2)CC1 [Compound 105]
Result: criterion met

Ask: Does the compound CNC(=O)c1ccc(C(=O)Nc2cc3nc(-c4cn(C)nn4)ccc3cn2)cn1 [Compound 372] have recorded pEC50 that is 6 or more?
Result: criterion met

Ask: Check if pEC50 >= 6 (inclusive). Item: CN1CCN(c2ncc(C(=O)Nc3cc4cc(-c5cnn(C)c5)ncc4cn3)s2)CC1 [Compound 4632]
Result: criterion met

Ask: Please tell me: is the compound Cn1cc(-c2ccc3cnc(NC(=O)c4ccc5nccnc5c4)cc3n2)cn1 [Compound 216] at or over 6 in terms of pEC50?
Result: criterion not met

Ask: Confirm if pEC50 reported for the compound CN1CCN(c2cc(C(=O)Nc3ncc4ccc(-c5cnn(C)c5)cc4n3)ccn2)CC1 [Compound 1054] is 6 or above.
Result: criterion not met

Ask: Record CN1CCN(c2cc(C(=O)Nc3cc4nc(-c5ccc(N)nc5)ccc4cn3)ccn2)CC1 [Compound 807] ; criterion: pEC50 no lower than 6. Met?
Result: criterion not met

Now take the following compound into account.
Ask: Is pEC50 at least 6? Consider O=C(Nc1cc2cc(-c3cnn4c3CN(CCF)CC4)ncc2cn1)C1CCC(F)(F)CC1 [Compound 3944]
Result: criterion met

---

Catalogue of log10 of EC50 readings, one per entry.
- target_or_test_system: GSK3β kinase (Homo sapiens, UniProt P49841)
- measurement_description: GSK3β kinase activity (Ser/Thr 09 peptide Z-lyte FRET assay)
- Format: biochemical
- experimental_parameters: recombinant kinase, 46 μM ATP, one hour at room temperature; read-out: EC50
Record value = log10 of EC50 given in nM.

Summary for this molecule, CN(C)CCNc1cc(C(=O)Nc2cc3cc(-c4cnn(C)c4)ncc3cn2)ccn1 [Compound 3791] : log10 of EC50 is 3.13

In plain terms, Cn1ncc(-c2cc3cc(NC(=O)C4CC5(C4)CN(CCF)C5)ncc3cn2)c1CN1CCCCC1 [Compound 3907] has a documented log10 of EC50 of 1.59

Briefly, log10 of EC50 measured for CN1CCC(C(=O)Nc2ncc3ccc(-c4cnsc4)cc3n2)CC1 [Compound 1598] : 3.62

The recorded log10 of EC50 for entry Cc1ncc(-c2ccc3cnc(NC(=O)Cn4ccnc4)nc3c2)o1 [Compound 1495] equals 2.40

Measured log10 of EC50, Cn1cc(-c2ccc3cnc(NC(=O)c4cnn(C5CCNCC5)c4)cc3n2)cn1 [Compound 228] : 2.88

log10 of EC50 in this record for CN(C)C1CCN(c2cc(C(=O)Nc3ncc4ccc(-c5cn(C)nn5)cc4n3)ccn2)CC1 [Compound 1282] : 2.66

Reported log10 of EC50 of Cn1cc(-c2ccc3cnc(NC(=O)C4CC4)nc3c2)cn1 [Compound 909] : 1.40

log10 of EC50 measured on Cn1cc(-c2ccc3cnc(NC(=O)c4ccc(OC5CCNCC5)cc4)nc3c2)nn1 [Compound 4573] = 2.21

***
The recorded log10 of EC50 for O=C(Nc1ncc2ccc(-c3cncs3)cc2n1)C1CCN(C(=O)CN2CCCC2)CC1 [Compound 1524] is 2.61

Looking up Cn1cc(-c2ccc3cnc(NC(=O)[C@H]4CC[C@H](NC(=O)OC(C)(C)C)CC4)cc3n2)cn1 [Compound 4537] , I found its log10 of EC50 recorded as 2.73

Reported log10 of EC50 of CN1CCC(C(=O)Nc2cc3cc(-c4cnsc4)ncc3cn2)CC1 [Compound 4319] : 2.30

---

- target_or_test_system: UniProt Q13627
- measurement_description: DYRK1A kinase activity (Ser/Thr 18 peptide Z-lyte FRET assay);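 further: kinase activity read as coumarin/fluorescein emission ratio after development step, with unphosphorylated and phosphorylated peptide forms setting 0% and 100% controls, values from dose-response curves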
- experimental_parameters: recombinant DYRK1A, 30 μM ATP, one hour at room temperature
observation_type: EC50 (nM)
Give the value, in units of nM, as a plain number.

According to the records, this compound `CN1CCC(Nc2cc(C(=O)Nc3cc4nc(-c5cnn(C)c5)ccc4cn3)ccn2)CC1` displays EC50 of 3

Consider `CCN(CC)CC(=O)Nc1cc2nc(-c3cnn(C)c3CN3CCCCC3)ccc2cn1` . Its measured EC50 is 698

Next:
// sample `CC(C)n1cc(C(=O)Nc2cc3nc(-c4cncc(NC5CCN(C)CC5)n4)ccc3cn2)cn1` , its EC50 was 12

Summary for this compound, `Cn1cc(-c2ccc3cnc(NC(=O)c4cnn(C5CCNCC5)c4)cc3n2)cn1` : EC50 is 6
